- measurement notes: Antiinflammatory activity in human neutrophils assessed as inhibition of fMLP/CB-induced superoxide anion generation after 5 mins by spectrophotometry
- Assay type: functional, cell-based
- particulars: Neutrophil
Quick list: IC50 per entry.
Report only the number, with the unit µM understood.

O=C1C=CC[C@@H]([C@@H]2O[C@H]2c2ccccc2)O1; 21.2
O=C1C=CC[C@@H]([C@H](O)[C@H](Cl)c2ccccc2)O1; 30
O=C1C=CC(O)[C@H](/C=C/c2ccccc2)O1 (stereo partly specified); 8.1
O=C1C=CC[C@@H](/C=C/c2ccccc2)O1; 8.3
CNC(=O)c1cc(Oc2ccc(NC(=O)Nc3ccc(Cl)c(C(F)(F)F)c3)cc2)ccn1 [SORAFENIB]; 6.3

// below: IC50 requested for another compound
Give the reported IC50 for this compound. O=c1cccc(/C=C/c2ccccc2)o1
11.6
